In this section we review reported CC50 at 4 days values for a set of compounds.
Assay: Cytotoxicity (CC50) in uninfected MRC-5 cells, XTT dye reduction
Assay type: cell-based, human
Settings: human, MRC-5 cells, uninfected (mock-infected); line of ECHO-9
Readout type: CC50 at 4 days

1) Cc1cc(C(=O)Nc2cccn([C@@H](Cc3ccc(F)c(F)c3)C(=O)N[C@H](/C=C/C(=O)OC(C)C)C[C@@H]3CCNC3=O)c2=O)no1 ... > 10 µM
2) C#CC[C@@H](C(=O)N[C@H](/C=C/C(=O)OC1CCC1)C[C@@H]1CCNC1=O)n1cccc(NC(=O)c2cc(C)on2)c1=O ... > 10 µM
